assay: Phase 1 clinical trial: plasma pharmacokinetics; type: in vivo, human; conditions: human, plasma, oral, 240 mg, Cycle 1, Day 1; 240 mg QD; cut-off March 2024; read-out: Cmax
Test readout: Cmax (ng/mL)
Report the value in ng/mL with no unit label.

# input Dear colleague, I am looking for the recorded Cmax of the following compound: CC1(C)Oc2cc(Cl)ccc2[C@@H]2OCC3(CCN(CCn4ccnc4)CC3)C[C@H]21 [Compound 1]
# output 177

----------
assay: Phase 1 clinical trial: plasma pharmacokinetics; format: in vivo, human; settings: human, plasma, oral, 120 mg, Cycle 1 Day 1; 120 mg, QD; cut-off April 2023; read-out: Cmax (mean)
Test readout: Cmax

# input Given the entry CC1(C)Oc2cc(Cl)ccc2[C@@H]2OCC3(CCN(CCn4ccnc4)CC3)C[C@H]21 , report its measured Cmax.
# output 44 ng/mL

----------
test: Phase 1 clinical trial: plasma pharmacokinetics; assay type: in vivo, human; conditions: human, plasma, oral, 240 mg, Cycle 2, Day 1; 480 mg (240 mg BID); cut-off March 2024; read-out: Cmax,ss
Test readout: Cmax (ng/mL)
Reply with just the number (in ng/mL).

# input I'd like to know its Cmax. The molecule in question is CC1(C)Oc2cc(Cl)ccc2[C@@H]2OCC3(CCN(CCn4ccnc4)CC3)C[C@H]21
# output 346

----------
assay: Phase 1 clinical trial: plasma pharmacokinetics; assay type: in vivo, human; details: human, plasma, oral, 40 mg, Cycle 1 Day 1; 40 mg, QD; cut-off April 2023; read-out: Cmax (median)
Test readout: Cmax (ng/mL)
Reply with just the number (in ng/mL).

# input Using the record for CC1(C)Oc2cc(Cl)ccc2[C@@H]2OCC3(CCN(CCn4ccnc4)CC3)C[C@H]21 , report its Cmax.
# output 7

----------
experiment: Phase 1 clinical trial: plasma pharmacokinetics; format: in vivo, human; conditions: human, plasma, oral, Cycle 2 Day 1; 20 mg to 240 mg once daily; cut-off April 2023; read-out: geometric mean of Cmax, range over all dose groups
Test readout: Cmax

# input Sample CC1(C)Oc2cc(Cl)ccc2[C@@H]2OCC3(CCN(CCn4ccnc4)CC3)C[C@H]21 — what was its Cmax?
# output 27.7 to 359 ng/mL

----------
Test: Phase 1 clinical trial: plasma pharmacokinetics
Assay type: in vivo, human
Conditions: human, plasma, oral, 40 mg, Cycle 2, Day 1; 40 mg QD; cut-off March 2024; read-out: Tmax,ss [a] median value
Procedure: Summary statistics based on preliminary data were obtained for the pharmacokinetics of Compound 1 in patients receiving once-daily doses ranging from 20 mg to 240 mg (Table 5). The mean plasma concentration-time curves of Compound 1 in the once-daily dose groups ranging from 20 mg to 240 mg are shown in Figure 11. In this study, one cycle consists of 28 days, and Cycle 1 Day 1 refers to Day 1 of the first cycle. […] Accumulation was observed after repeated administration. […]
Test readout: Tmax
Output should be the measured figure followed by the unit it is expressed in.

# input # query: Tmax of entry CC1(C)Oc2cc(Cl)ccc2[C@@H]2OCC3(CCN(CCn4ccnc4)CC3)C[C@H]21
# output 4 h

----------
experiment: Phase 1 clinical trial: plasma pharmacokinetics; type: in vivo, human; details: human, plasma, oral, 20 mg, Cycle 1 Day 1; 20 mg, QD; cut-off April 2023; read-out: Cmax (median)
Test readout: Cmax (ng/mL)
Write the answer as a number in ng/mL, unit excluded.

# input Would you mind telling me what Cmax value was observed for CC1(C)Oc2cc(Cl)ccc2[C@@H]2OCC3(CCN(CCn4ccnc4)CC3)C[C@H]21 [Compound 1] ?
# output 4

----------
assay: Phase 1 clinical trial: plasma pharmacokinetics; type: in vivo, human; settings: human, plasma, oral, Cycle 1 Day 1; 20 mg to 240 mg once daily; cut-off April 2023; read-out: median Tmax, range over all dose groups
Test readout: Tmax

# input Query: Tmax; subject: CC1(C)Oc2cc(Cl)ccc2[C@@H]2OCC3(CCN(CCn4ccnc4)CC3)C[C@H]21 [Compound 1]
# output 2 to 8 h

----------
test: Phase 1 clinical trial: plasma pharmacokinetics; type: in vivo, human; settings: human, plasma, oral, 120 mg, Cycle 2 Day 1; 120 mg, QD; cut-off April 2023; read-out: Cmax (median)
Test readout: Cmax (ng/mL)
Write the value in ng/mL as a bare number.

# input Look at this molecule and give its reported Cmax. CC1(C)Oc2cc(Cl)ccc2[C@@H]2OCC3(CCN(CCn4ccnc4)CC3)C[C@H]21 [Compound 1]
# output 138

----------
test: Phase 1 clinical trial: plasma pharmacokinetics; format: in vivo, human; details: human, plasma, oral, 240 mg, Cycle 1, Day 1; 240 mg QD; cut-off March 2024; read-out: Tmax [a] median value
Test readout: Tmax (h)
# number only, unit h dropped from output

# input Which Tmax is listed for CC1(C)Oc2cc(Cl)ccc2[C@@H]2OCC3(CCN(CCn4ccnc4)CC3)C[C@H]21 [Compound 1] ?
# output 2

----------
assay: Phase 1 clinical trial: plasma pharmacokinetics; format: in vivo, human; conditions: human, plasma, oral, Cycle 2 Day 1; 20 mg to 240 mg once daily; cut-off April 2023; read-out: median Tmax, range over all dose groups
Test readout: Tmax

# input What does the record list as Tmax for CC1(C)Oc2cc(Cl)ccc2[C@@H]2OCC3(CCN(CCn4ccnc4)CC3)C[C@H]21 ?
# output 2 to 7 h

----------
experiment: Phase 1 clinical trial: plasma pharmacokinetics; type: in vivo, human; conditions: human, plasma, oral, 40 mg, Cycle 2 Day 1; 40 mg, QD; cut-off April 2023; read-out: Tmax (mean)
Test readout: Tmax

# input If you can, please state the reported Tmax value of CC1(C)Oc2cc(Cl)ccc2[C@@H]2OCC3(CCN(CCn4ccnc4)CC3)C[C@H]21 .
# output 5 h

----------
experiment: Phase 1 clinical trial: plasma pharmacokinetics; format: in vivo, human; conditions: human, plasma, oral, 180 mg, Cycle 2 Day 1; 180 mg, QD; N=1; cut-off April 2023; read-out: AUC0-24 (geometric mean)
Test readout: AUC(0-t) (ng·h/mL)
Express it in ng·h/mL; write the number only.

# input Consider the compound shown here: CC1(C)Oc2cc(Cl)ccc2[C@@H]2OCC3(CCN(CCn4ccnc4)CC3)C[C@H]21 What is its recorded AUC(0-t)?
# output 7260

----------
experiment: Phase 1 clinical trial: plasma pharmacokinetics; format: in vivo, human; conditions: human, plasma, oral, 20 mg, Cycle 2 Day 1; 20 mg, QD; cut-off April 2023; read-out: Cmax (median)
Test readout: Cmax (ng/mL)
Express the result in ng/mL but write the number alone.

# input I'd like to know its Cmax. The compound in question is CC1(C)Oc2cc(Cl)ccc2[C@@H]2OCC3(CCN(CCn4ccnc4)CC3)C[C@H]21 [Compound 1]
# output 28

----------
assay: Phase 1 clinical trial: plasma pharmacokinetics; assay type: in vivo, human; details: human, plasma, oral, 80 mg, Cycle 1 Day 1; 80 mg, QD; cut-off April 2023; read-out: Cmax (median)
Test readout: Cmax (ng/mL)
Numbers only here, please. The scale is ng/mL.

# input // lookup Cmax for CC1(C)Oc2cc(Cl)ccc2[C@@H]2OCC3(CCN(CCn4ccnc4)CC3)C[C@H]21 [Compound 1]
# output 15

----------
experiment: Phase 1 clinical trial: plasma pharmacokinetics; type: in vivo, human; conditions: human, plasma, oral, 180 mg, Cycle 2 Day 1; 180 mg, QD; N=1; cut-off April 2023; read-out: AUC0-24 (mean)
Test readout: AUC(0-t) (ng·h/mL)
Note: unit ng·h/mL is implicit; provide only the numeric part.

# input Give the measured AUC(0-t) of CC1(C)Oc2cc(Cl)ccc2[C@@H]2OCC3(CCN(CCn4ccnc4)CC3)C[C@H]21 .
# output 7260

----------
experiment: Phase 1 clinical trial: plasma pharmacokinetics; type: in vivo, human; conditions: human, plasma, oral, 120 mg, Cycle 1 Day 1; 120 mg, QD; cut-off April 2023; read-out: Tmax (median)
Test readout: Tmax (h)
Number only, in h; omit the unit.

# input # Tmax lookup, item CC1(C)Oc2cc(Cl)ccc2[C@@H]2OCC3(CCN(CCn4ccnc4)CC3)C[C@H]21
# output 4

----------
test: Phase 1 clinical trial: plasma pharmacokinetics; type: in vivo, human; details: human, plasma, oral, 240 mg, Cycle 2 Day 1; 240 mg, QD; N=1; cut-off April 2023; read-out: AUC0-24 (median)
Test readout: AUC(0-t) (ng·h/mL)
Your answer is read as ng·h/mL, so omit the unit and give the number.

# input Request the reported AUC(0-t) associated with CC1(C)Oc2cc(Cl)ccc2[C@@H]2OCC3(CCN(CCn4ccnc4)CC3)C[C@H]21
# output 6670

----------
assay: Phase 1 clinical trial: plasma pharmacokinetics; type: in vivo, human; details: human, plasma, oral, 240 mg, Cycle 2, Day 1; 240 mg QD; cut-off March 2024; read-out: Tmax,ss [a] median value
Test readout: Tmax (h)
State just the number; it will be interpreted in h.

# input Entry under review: CC1(C)Oc2cc(Cl)ccc2[C@@H]2OCC3(CCN(CCn4ccnc4)CC3)C[C@H]21 [Compound 1] . Reported Tmax?
# output 5
